Measured Target: RARγ (Homo sapiens)
Construct: gal4 (fusion partner); expressed in transfected cells; host or cells: COS-7
Protocol Description: Transactivation assay for RAR gamma (gal4-RAR fusion, luciferase reporter, COS-7 cells)
Format: cell-based
Assay Setup: ratio of test compound EC50 to that of atRA; inactive = no agonist action at the highest concentration tested
Observation Type: RARγ activity ratio

# Compound, Observation Type, Test Value
records = [
    ("CCOc1c(Br)cc(C(=O)Nc2ccc(C(=O)O)cc2)cc1C(F)(F)F [AAA-042]", "RARγ activity ratio", 6000),
    ("COc1c(Cl)cc(C(=O)Nc2ccc(C(=O)O)cc2F)cc1C(F)(F)F [AAA-067]", "RARγ activity ratio", 6047),
]

====

Measured Target: RARα (Homo sapiens)
Construct: gal4 (fusion partner); expressed in transfected cells; host or cells: COS-7
Sequence (P10276 183-417 limits assumed, species assumed): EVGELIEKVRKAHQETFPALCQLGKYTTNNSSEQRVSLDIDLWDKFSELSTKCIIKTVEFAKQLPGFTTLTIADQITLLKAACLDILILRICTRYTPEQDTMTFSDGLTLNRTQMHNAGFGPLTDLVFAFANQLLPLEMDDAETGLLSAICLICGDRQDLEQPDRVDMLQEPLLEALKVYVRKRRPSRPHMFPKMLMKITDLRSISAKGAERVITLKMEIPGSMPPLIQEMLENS
Protocol Description: Transactivation assay for RAR alpha (gal4-RAR fusion, luciferase reporter, COS-7 cells)
Type: cell-based
Assay Setup: fold-selectivity for RARα over RARβ
Observation Type: RARα/RARβ ratio (*)

[1] CC(C)Oc1cc(C(=O)Nc2ccc(C(=O)O)cc2)cc(OC(C)C)c1Cl
[2] CCOc1c(Cl)cc(C(=O)Nc2ccc(C(=O)O)nc2)cc1Cl
[3] Cc1cc(NC(=O)c2cc(Cl)c(OC(C)C)c(OC(C)C)c2)ccc1C(=O)O
[4] CC(C)Oc1cc(C(=O)Nc2ccc(C(=O)O)cc2)cc(C(F)(F)F)c1OC(C)C
[5] CCOc1c(Cl)cc(C(=O)Nc2ccc(C(=O)O)cc2)cc1OCC1CC1
Order all 5 entries above by recorded RARα/RARβ ratio (*), highest first, lowest last. Provide your answer as the labels ordered per the instruction.
1, 5, 4, 3, 2
(1: 1212, 5: 392, 4: 157, 3: 45, 2: 27.3)

[a] CCOc1c(OC2CCCC2)cc(C(=O)Nc2ccc(C(=O)O)cc2)cc1OC1CCCC1
[b] Cc1cc(NC(=O)c2cc(OC(C)C)c(Br)c(OC(C)C)c2)ccc1C(=O)O
[c] Cc1cc(NC(=O)c2cc(Cl)c(Cl)c(OC(C)C)c2)ccc1C(=O)O
Please produce an ascending ranking of these compounds based on RARα/RARβ ratio (*). Provide your answer as the labels ordered per the instruction.
b, a, c

[I] COC(=O)c1ccc(NC(=O)c2cc(Cl)c(OC3CCCC3)c(Cl)c2)cc1
[II] COc1c(Cl)cc(C(=O)Nc2ccc(C(=O)O)c(C)c2)cc1OC(C)C
Smaller RARα/RARβ ratio (*) value? Options are I and II API: response body contains the label of the selected item.
I
(I: 58.0, II: 241)

====

Measured Target: RARβ (Homo sapiens)
Construct: gal4 (fusion partner); expressed in transfected cells; host or cells: COS-7
Protocol Description: Transactivation assay for RAR beta (gal4-RAR fusion, luciferase reporter, COS-7 cells)
Format: cell-based
Assay Setup: ratio of test compound EC50 to that of atRA; inactive = no agonist action at the highest concentration tested
Description: Transcriptional transactivation assays were performed with gal4 fusion receptor constructs, created using each of the RAR ligand binding domains, co-transfected with the pFR-luc (Stratagene™) reporter construct in COS-7 cells. Briefly, on day 1, 96 well plates were seeded with 8000 cells per well then left to recover overnight. On day 2, the cells were co-transfected with 100 ng of reporter plasmid and 10 ng of the appropriate receptor plasmid per well using lipofectamine (Invitrogen™). […]
Observation Type: RARβ activity ratio

These recorded examples may help you get a feel for the data.
# Smiles Record, RARβ activity ratio
records = [
    ("CCOc1c(Cl)cc(NC(=O)c2ccc(C(=O)O)cn2)cc1Cl", 214),
    ("O=C(O)c1ccc(NC(=O)c2cc(Cl)c(OC3CCC3)c(Cl)c2)cc1", 2960),
    ("CCOc1cc(C(=O)Nc2ccc(C(=O)O)cc2)cc(OCC)c1OCC", 64000),
    ("O=C(Nc1ccc(C(=O)O)c(O)c1)c1cc(Cl)c(OC2CCC2)c(OC2CCC2)c1", 656),
    ("CCOc1c(Cl)cc(C(=O)Nc2ccc(C(=O)O)c(C)c2)cc1OC", 6923),
    ("CCOc1c(Cl)cc(C(=O)Nc2ccc(C(=O)O)c(C)c2)cc1OC1CCC1", 215),
    ("CC(C)(C)Oc1c(Cl)cc(C(=O)Nc2ccc(C(=O)O)cc2)cc1C(F)(F)F", 324),
    ("COc1c(Cl)cc(C(=O)Nc2ccc(C(=O)O)c(C)c2)cc1Cl", 1926),
    ("CCOc1c(Cl)cc(C(=O)Nc2ccc(C(=O)O)c(C)c2)cc1OC(C)C", 318),
    ("Cc1cc(NC(=O)c2cc(Cl)c(OC(C)(C)C)c(C(F)(F)F)c2)ccc1C(=O)O", 49),
]

[a] COc1c(Cl)cc(C(=O)Nc2ccc(C(=O)O)c(F)c2)cc1OC1CCC1
[b] Cc1cc(NC(=O)c2cc(Cl)c(Cl)c(OC(C)C)c2)ccc1C(=O)O
[c] CCOc1c(Cl)cc(C(=O)Nc2ccc(C(=O)O)c(C)c2)cc1C(F)(F)F
[d] CCOc1cc(C(=O)Nc2ccc(C(=O)O)c(C)c2)cc(Cl)c1OC(C)C
[e] Cc1cc(NC(=O)c2cc(Cl)c(OC3CCCC3)c(OC3CCCC3)c2)ccc1C(=O)O
Please produce an ascending ranking of these compounds based on RARβ activity ratio. Provide your answer as the labels ordered per the instruction.
e, c, b, d, a

[1] CCOc1c(Cl)cc(C(=O)Nc2ccc(C(=O)O)c(O)c2)cc1OC(C)C
[2] CCOc1cc(C(=O)Nc2ccc(C(=O)O)c(C)c2)cc(OC(CC)CC)c1Cl
Of 1 and 2 , whose reported RARβ activity ratio is the larger number? API: response body contains the label of the selected item.
1

[P] COc1c(OC(C)C)cc(C(=O)Nc2ccc(C(=O)O)c(C)c2)cc1OC(C)C
[Q] CCC(CC)Oc1cc(C(=O)Nc2ccc(C(=O)O)c(C)c2)cc(Cl)c1OC
[R] Cc1cc(NC(=O)c2cc(F)c(OC(C)C)c(Cl)c2)ccc1C(=O)O
Parameters: sort_field (RARβ activity ratio), sort_dir (desc). Provide your answer as the labels ordered per the instruction.
R, P, Q

====

Measured Target: RARβ (Homo sapiens, UniProt P10826)
Construct: gal4 (fusion partner); expressed in transfected cells; host or cells: COS-7
Sequence (P10826 183-417 limits assumed): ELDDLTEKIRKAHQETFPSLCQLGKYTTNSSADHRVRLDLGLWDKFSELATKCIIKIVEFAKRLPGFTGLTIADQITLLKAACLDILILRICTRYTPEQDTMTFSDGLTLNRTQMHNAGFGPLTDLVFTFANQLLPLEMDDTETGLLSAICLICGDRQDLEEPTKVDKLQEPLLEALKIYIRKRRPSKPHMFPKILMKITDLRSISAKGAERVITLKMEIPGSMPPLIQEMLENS
Protocol Description: Transactivation assay for RAR beta (gal4-RAR fusion, luciferase reporter, COS-7 cells)
Type: cell-based
Assay Setup: ratio of test compound EC50 to that of atRA; inactive = no agonist action at the highest concentration tested
Observation Type: RARβ activity ratio

# Compound, RARβ activity ratio
measured = [
    ("CC(C)Oc1cc(C(=O)Nc2ccc(C(=O)O)cc2)cc(OC(C)C)c1OC(C)C [AAA-059]", 2600),
    ("CCOc1cc(C(=O)Nc2ccc(C(=O)O)c(C)c2)cc(OCC)c1Br [AAA-110]", 1921),
    ("Cc1cc(NC(=O)c2cc(Cl)c(OC3CCCC3)c(Cl)c2)ccc1C(=O)O [AAA-054]", 21),
    ("COc1c(Cl)cc(C(=O)Nc2ccc(C(=O)O)cc2)cc1OC1CCC1 [AAA-098]", 433),
    ("O=C(O)c1ccc(NC(=O)c2cc(Cl)c(OC3CCC3)c(C(F)(F)F)c2)cc1 [AAA-036]", 215),
]

[P] CCOc1c(Cl)cc(C(=O)Nc2ccc(C(=O)O)c(F)c2)cc1C(F)(F)F [AAA-068]
[Q] CCOc1c(F)cc(C(=O)Nc2ccc(C(=O)O)cc2)cc1F [AAA-073]
Smaller RARβ activity ratio value? Options are P and Q API: response body contains the label of the selected item.
Q

====

Measured Target: RARγ (Homo sapiens, UniProt P13631)
Construct: gal4 (fusion partner); expressed in transfected cells; host or cells: COS-7
Sequence (P13631 185-419 limits assumed): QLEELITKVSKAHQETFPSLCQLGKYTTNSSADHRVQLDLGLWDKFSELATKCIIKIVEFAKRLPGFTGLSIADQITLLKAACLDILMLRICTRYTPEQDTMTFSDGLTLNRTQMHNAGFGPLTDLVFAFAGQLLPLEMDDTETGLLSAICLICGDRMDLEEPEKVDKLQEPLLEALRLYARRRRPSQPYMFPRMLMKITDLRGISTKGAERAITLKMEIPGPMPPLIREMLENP
Protocol Description: Transactivation assay for RAR gamma (gal4-RAR fusion, luciferase reporter, COS-7 cells)
Format: cell-based
Assay Setup: ratio of test compound EC50 to that of atRA; inactive = no agonist action at the highest concentration tested

# Molecule, RARγ activity ratio
rows = [
    ("CCOc1c(Cl)cc(NC(=O)c2ccc(C(=O)O)cn2)cc1Cl", "inactive"),
    ("CCOc1c(Cl)cc(C(=O)Nc2ccc(C(=O)O)c(C)c2)cc1OC", ">8300"),
    ("O=C(O)c1ccc(NC(=O)c2cc(Cl)cc(Cl)c2)cc1 [XXX-03, 4-(3,5-Dichlorobenzamido)benzoic acid, reference compound]", "inactive"),
    ("CCOc1c(Cl)cc(C(=O)Nc2cc(F)c(C(=O)O)c(F)c2)cc1C(F)(F)F", "inactive"),
]
